Reported EC50 values follow for various molecules
biological target: G-protein coupled receptor 55 (Homo sapiens, UniProt Q9Y2T6); assay: Agonist activity at beta-galactosidase enzyme fragment-fused GPR55 (unknown origin) expressed in CHOK1 cells assessed as increase in N-terminal deletion beta-galactosidase mutant-tagged beta arrestin recruitment measured for 1 sec by chemiluminescence based pathhunter assay; assay type: functional, cell-based
Sequence (Q9Y2T6 whole entry, looked up, stated change not applied, the tested form may be a part): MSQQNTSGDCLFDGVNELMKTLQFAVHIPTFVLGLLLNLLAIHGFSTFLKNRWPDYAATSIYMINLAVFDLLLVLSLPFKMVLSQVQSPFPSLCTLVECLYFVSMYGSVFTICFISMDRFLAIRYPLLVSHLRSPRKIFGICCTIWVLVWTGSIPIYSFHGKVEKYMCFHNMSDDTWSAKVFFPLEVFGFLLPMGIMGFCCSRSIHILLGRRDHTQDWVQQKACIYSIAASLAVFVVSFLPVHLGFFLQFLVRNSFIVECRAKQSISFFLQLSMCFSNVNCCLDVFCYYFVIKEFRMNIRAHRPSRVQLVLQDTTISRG

Below: 4 molecules and their reported EC50.
- COc1ccccc1/C=C/C(=O)NC(=S)Nc1ccc(S(=O)(=O)NCC(O)CO)cc1 (stereo not drawn): > 30000 nM
- CN(c1ccccc1)S(=O)(=O)c1ccc(NC(=S)NC(=O)c2cnc3ccccc3c2)cc1: > 30000 nM
- COc1ccccc1/C=C/C(=O)NC(=S)Nc1ccc(S(=O)(=O)N(Cc2ccncc2)c2ccccc2)cc1: 300 nM
- O=C(NC(=S)Nc1ccc(S(=O)(=O)N(Cc2ccc(CO)o2)c2ccccc2)cc1)c1ccc2cccnc2c1: 600 nM

Form: item "O=C(NC(=S)Nc1ccc(S(=O)(=O)N(Cc2ccc(CO)o2)c2ccccc2)cc1)c1ccc2cc(CCO)ccc2c1" ; test system G-protein coupled receptor 55 (Homo sapiens, UniProt Q9Y2T6); EC50: 6000 nM

Form: item "COc1ccccc1/C=C/C(=O)NC(=S)Nc1ccc(S(=O)(=O)N(Cc2ccc(O)cc2)c2ccccc2)cc1" ; test system G-protein coupled receptor 55 (Homo sapiens, UniProt Q9Y2T6); EC50: 500 nM

Form: item "CN(c1ccccc1)S(=O)(=O)c1ccc(NC(=S)NC(=O)c2ccc3cc(CCO)ccc3c2)cc1" ; test system G-protein coupled receptor 55 (Homo sapiens, UniProt Q9Y2T6); EC50: 300 nM

Form: item "CN(c1ccccc1)S(=O)(=O)c1ccc(NC(=S)NC(=O)c2ccc3cccnc3c2)cc1" ; test system G-protein coupled receptor 55 (Homo sapiens, UniProt Q9Y2T6); EC50: 1000 nM

----------
target: Cannabinoid receptor 1 (Homo sapiens); experiment: Agonist activity at human brain CB1 receptor expressed in U2OS cells assessed as increase in beta arrestin recruitment after 60 mins by fluorescence assay
Sequence (P21554 whole entry): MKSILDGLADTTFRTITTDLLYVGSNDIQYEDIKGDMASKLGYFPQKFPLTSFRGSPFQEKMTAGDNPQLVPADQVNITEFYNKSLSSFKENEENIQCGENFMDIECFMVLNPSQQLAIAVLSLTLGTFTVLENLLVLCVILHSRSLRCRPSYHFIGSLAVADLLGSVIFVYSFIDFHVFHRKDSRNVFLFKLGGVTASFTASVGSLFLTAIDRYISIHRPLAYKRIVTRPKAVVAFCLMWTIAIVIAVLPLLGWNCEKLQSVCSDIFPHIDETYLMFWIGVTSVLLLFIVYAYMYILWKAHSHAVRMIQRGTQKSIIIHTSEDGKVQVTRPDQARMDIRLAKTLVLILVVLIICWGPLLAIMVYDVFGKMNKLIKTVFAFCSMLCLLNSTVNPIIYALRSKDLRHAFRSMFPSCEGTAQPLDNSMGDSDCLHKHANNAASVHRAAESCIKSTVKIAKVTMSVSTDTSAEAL
endpoint: EC50

- COc1ccc2cc(C)c3nnc(SCC(=O)Nc4nc(-c5ccc(F)cc5)cs4)n3c2c1: > 30 µM
- Cc1cccc(N2CCN(C(=O)c3cc(S(=O)(=O)N(C)C)ccc3N3CCCC3)CC2)c1C: > 30 µM

We next turn to a different compound, shown below.
Item: "COc1ccccc1/C=C/C(=O)NC(=S)Nc1ccc(S(=O)(=O)N(C)c2ccccc2)cc1" | EC50: > 30 µM

----------
molecular target: G-protein coupled receptor 55 (Homo sapiens); assay: Agonist activity at beta-galactosidase enzyme fragment-fused GPR55 (unknown origin) expressed in CHOK1 cells assessed as increase in N-terminal deletion beta-galactosidase mutant-tagged beta arrestin recruitment measured for 1 sec by chemiluminescence based pathhunter assay; assay type: functional, cell-based
Reported pEC50 values follow for various compounds
Value format note: pEC50 is -log10 of concentration (mol/L); just state the number.

• O=C(NC(=S)Nc1ccc(S(=O)(=O)N(Cc2ccc(O)cc2)c2ccccc2)cc1)c1ccc2cccnc2c1 = 6.30

Item: "O=C(NC(=S)Nc1ccc(S(=O)(=O)N(CCO)c2ccccc2)cc1)c1ccc2cc(CCO)ccc2c1" | pEC50: 4.70

Item: "COc1ccccc1/C=C/C(=O)NC(=S)Nc1ccc(S(=O)(=O)N(Cc2ccc(CO)o2)c2ccccc2)cc1" | pEC50: 7.00

Item: "O=C(NC(=S)Nc1ccc(S(=O)(=O)N(Cc2ccncc2)c2ccccc2)cc1)c1ccc2cccnc2c1" | pEC50: 6.05

----------
Reported pEC50 values follow for various compounds
target: G-protein coupled receptor 55 (Homo sapiens, UniProt Q9Y2T6); experiment: Agonist activity at HA-epitope-tagged variant of GPR55E with serine enhanced C terminus (unknown origin) expressed in human U2OS cells assessed as increase in GFP-tagged beta arrestin2 recruitment after 75 mins by fluorescence assay; type: cell-based
Sequence (Q9Y2T6 whole entry, looked up, the tested form may be a part): as the sequence (Q9Y2T6 whole entry, looked up, stated change not applied, the tested form may be a part) above
Value format note: pEC50 is -log10 of concentration (mol/L); just state the number.

• COc1ccc2cc(C)c3nnc(SCC(=O)Nc4nc(-c5ccc(F)cc5)cs4)n3c2c1 = 6.80
• COc1ccccc1/C=C/C(=O)NC(=S)Nc1ccc(S(=O)(=O)N(C)c2ccccc2)cc1 = 6.96

Item: "Cc1cccc(N2CCN(C(=O)c3cc(S(=O)(=O)N(C)C)ccc3N3CCCC3)CC2)c1C" | pEC50: 6.59
